- Test system: snout beetles
- ASSAY REMARKS: Field test of individual odorants in yellow Delta traps
- Type: in vivo, Eremnus setulosus and/or Phlyctinus calosus
- MEASUREMENT CONDITIONS: replication 2; traps at ground level against apple tree trunks, collected after one week
# Lookup of reported Numbers of snout beetles caught in yellow Delta traps, Rep. 2 keyed by entry
Field format: numeric only.

>>> measured_number("O=C(O)C1CC1 [Cyclopropane carboxylic acid]")
7
>>> measured_number("CC(=O)CCC(C)C [5-Methyl-2-hexanone]")
1
>>> measured_number("COc1cccc(C(C)=O)c1 [3-Methoxy acetophenone]")
1
>>> measured_number("COc1ccccc1 [Anisole]")
1

Next compound, please.
In: Query: Numbers of snout beetles caught in yellow Delta traps, Rep. 2; subject: COC1=C(C)OC(C)C1=O (centres unmarked) [2,5-Dimethyl-4-methoxy-3(2H)-furanone]
Out: 4
